assay: chemical genetic growth profiling, strain panel (AID 1159580);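 also: tested at 20 µM; growth read once vehicle control cultures reached saturation at 30 °C; 1 = growth at the plate median or of vehicle wells; lower values mean less growth of the strain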
experimental_context: S. cerevisiae deletion strains, growth OD, locus YCL061C, strain MRC1 (second series), hits give low values
Hit rate of the full screen: of about 5,500 compounds, about 2,000 (36%) were called active. Another 18% or so got no clear call; they are omitted. The list shows a part of the results.
Please go through the items and note down their normalized growth.

q: For CCc1cccc2c3c([nH]c12)C(CC)(CC(=O)O)OCC3 (stereo unspecified) , what is its reported normalized growth?
a: 0.995 (inactive)

q: For NC(N)=NC(N)=Nc1ccccc1 , what is its reported normalized growth?
a: 1 (inactive)

q: For O=C(O)/C(=C/c1c(C(=O)O)[nH]c2cc(Cl)cc(Cl)c12)c1ccccc1 , what is its reported normalized growth?
a: 0.977 (inactive)

q: For C[C@]12CCC(=O)C=C1CC[C@@H]1[C@@H]2[C@@H](O)C[C@@]2(C)[C@H]1CC[C@]2(O)C(=O)COC(=O)CCC(=O)O , what is its reported normalized growth?
a: 1 (inactive)

q: For C[C@]12CCC(=O)C=C1CC[C@@H]1[C@@H]2[C@@H](O)C[C@@]2(C)[C@H]1CC[C@]2(O)C(=O)CO , what is its reported normalized growth?
a: 1 (inactive)

q: For CN1C(=O)CCS(=O)(=O)C1c1ccc(Cl)cc1 (stereo unspecified) , what is its reported normalized growth?
a: 0.999 (inactive)

q: For NC(C(=O)O)c1cc(=O)[nH]o1 (stereo unspecified) , what is its reported normalized growth?
a: 1 (inactive)

q: For CN1CCN(CC/C=C2/c3ccccc3Sc3ccc(S(=O)(=O)N(C)C)cc32)CC1 , what is its reported normalized growth?
a: 1 (inactive)

q: For C[C@]12Cc3cn4c(nc3C=C1CCC1C2CC[C@@]2(C)[C@H]1CC[C@@]2(O)C#N)nc1ccccc14 (stereo partly specified) , what is its reported normalized growth?
a: 0.99 (inactive)

q: For CN(C)S(=O)(=O)c1ccc2c(c1)/C(=C/c1cc3c([nH]1)CCCC3)C(=O)N2 , what is its reported normalized growth?
a: 0.995 (inactive)

q: For CCCCCN(CCCCC)C(=O)C(CCC(=O)O)NC(=O)c1ccc(Cl)c(Cl)c1 (stereo unspecified) , what is its reported normalized growth?
a: 1 (inactive)

q: For COc1cc2c(cc1OC)-c1cc(=Nc3c(C)cc(C)cc3C)n(C)c(=O)n1CC2 , what is its reported normalized growth?
a: 0.998 (inactive)

q: For CC(=O)NCCc1c[nH]c2ccccc12 , what is its reported normalized growth?
a: 1 (inactive)

q: For O=C(O)c1cc([N+](=O)[O-])ccc1NCCCc1ccccc1 , what is its reported normalized growth?
a: 1.01 (inactive)

q: For NC1CC1c1ccccc1 (stereo unspecified) , what is its reported normalized growth?
a: 1.01 (inactive)

q: For CCN(CC)C(=O)c1ccc(O)c(OC)c1 , what is its reported normalized growth?
a: 1 (inactive)

----------
assay: chemical genetic growth profiling, strain panel (AID 1159580);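 also: tested at 20 µM; growth read once vehicle control cultures reached saturation at 30 °C; 1 = growth at the plate median or of vehicle wells; lower values mean less growth of the strain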
experimental_context: S. cerevisiae deletion strains, growth OD, locus YLR342W, strain FKS1 (second series), hits give low values
Out of some 5,500 compounds screened, about 2,000 (36%) were called active. About 18% were inconclusive and are not listed. Some of the results follow.
Labelling: normalized growth reported below 1 becomes condition met; at or above becomes condition not met.

q: A record lists CC(=O)Oc1cccc2c1C(=O)c1c(OC(C)=O)cc(C(=O)O)cc1C2=O . Is its normalized growth below 1?
a: condition not met

q: A record lists NCC1OC(OC2C(CO)OC(OC3C(O)C(N)CC(N)C3OC3OC(CO)C(O)CC3N)C2O)C(N)C(O)C1OC1OC(CO)C(O)C(O)C1O (stereo unspecified) . Is its normalized growth below 1?
a: condition not met

q: A record lists COc1cc(/C=C/C=O)cc(OC)c1OC . Is its normalized growth below 1?
a: condition not met

q: A record lists C1CCC(C(CC2CCCCN2)C2CCCCC2)CC1 (stereo unspecified) . Is its normalized growth below 1?
a: condition met
